Attribution: patent US20240067651A1

Assay: Stability in Simulated Intestinal Fluid (SIF)
Format: in vitro ADME
Design: key: % parent compound remaining relative to 0-minute sample
Conditions: % remaining at 1 h in simulated intestinal fluid; the 17th table
metric_name: SIF (% remaining)

Below, 5 molecules whose answers are already recorded.
Data request: Entry CCCCCOC(=O)OCSc1nc(=O)c2c(ccn2COC(=O)OCCCCC)n1CCOC(C)C [Example 217] has what SIF?
Data returned: 1

Data request: Entry CCCCCCOC(=O)OCn1ccc2c1c(=O)nc(S)n2CCOC(C)C [Example 213] has what SIF?
Data returned: 1

Data request: Entry CCCCCCCOC(=O)OCn1ccc2c1c(=O)nc(S)n2CCOC(C)C [Example 219] has what SIF?
Data returned: 23

Data request: Entry CC(C)NC(=O)n1ccc2c1c(=O)[nH]c(=S)n2CCOC(C)C [Example 223] has what SIF?
Data returned: 70

Data request: Entry CC(C)OCCn1c(=S)[nH]c(=O)c2c1ccn2C(=O)Nc1ccccc1 [Example 227] has what SIF?
Data returned: 95

1. CCCCCOC(=O)OCn1c(=O)c2c(ccn2COC(=O)OCCCCC)n(CCOC(C)C)c1=S [Example 218]
2. CC(C)OCCn1c(=S)[nH]c(=O)c2c1ccn2C(=O)NCc1ccccc1 [Example 228]
3. CCCCCCCOC(=O)OCSc1nc(=O)c2c(ccn2COC(=O)OCCCCCCC)n1CCOC(C)C [Example 220]
4. CCCCCOC(=O)OCn1ccc2c1c(=O)nc(S)n2CCOC(C)C [Example 216]
Data request: Output the entries ranked by SIF from maximum down to minimum. Form field (ranking): labels in requested order.
Data returned: 2, 3, 1, 4
(2: 100 % remaining, 3: 5 % remaining, 1: 2 % remaining, 4: 1 % remaining)
